Target: human OX2 receptor (Homo sapiens, UniProt O43614)
Construct: expressed in transfected cells
Sequence (O43614 1-444): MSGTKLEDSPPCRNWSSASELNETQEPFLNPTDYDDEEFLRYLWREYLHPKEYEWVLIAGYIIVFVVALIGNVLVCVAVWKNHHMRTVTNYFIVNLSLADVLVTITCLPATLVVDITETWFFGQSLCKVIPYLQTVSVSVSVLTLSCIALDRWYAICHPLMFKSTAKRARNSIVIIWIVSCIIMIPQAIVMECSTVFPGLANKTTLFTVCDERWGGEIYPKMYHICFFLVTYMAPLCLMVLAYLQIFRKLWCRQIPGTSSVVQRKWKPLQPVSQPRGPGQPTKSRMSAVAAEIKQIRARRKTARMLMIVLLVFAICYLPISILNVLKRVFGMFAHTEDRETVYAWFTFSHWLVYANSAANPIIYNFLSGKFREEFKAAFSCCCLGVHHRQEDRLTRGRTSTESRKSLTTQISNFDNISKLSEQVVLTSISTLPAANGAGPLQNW
Experiment: Measurement of orexin type 2 receptor agonist activity (Fluo-4 calcium fluorescence, FDSS)
Type: cell-based
Settings: compound at 3 μM; CHO cells forcibly expressing human OX2 receptor; DMSO = 0%, orexin A (human) 10 nM = 100%
MEASURED_PARAMETER: OX2R agonist activity (3 μM, %)

COc1ccc(C2CCCCN2C(C)=O)cc1S(=O)(=O)Nc1cccc(O[C@H]2CCN(C(=O)c3c(C)cccc3C)C2)c1 (stereo partly shown)    89%
COc1ccc(-c2cccc(C(=O)N(C)C)c2)cc1S(=O)(=O)Nc1cccc(O[C@H]2CCN(C(=O)c3c(C)cccc3C)C2)c1F    89%
COc1ccccc1S(=O)(=O)Nc1ccnc(O[C@@H]2CN(C(=O)c3cc(C)ccc3C)C[C@H]2OC)c1 (relative stereo)    95%
COc1ccccc1S(=O)(=O)Nc1cccc(O[C@@H]2CN(C(=O)c3cc(C)ccc3C)C[C@H]2OC)c1Cl (relative stereo)    66%
Cc1cccc(C)c1C(=O)N1CC[C@H](Oc2cccc(NS(=O)(=O)c3sccc3Cl)c2)C1    44%
Cc1cccc(C)c1C(=O)N1CC[C@H](Oc2cccc(NS(=O)(=O)c3ccccc3Cl)c2)C1    35%

Now, please, on to the next compound.
q: Can you share its OX2R agonist activity (3 μM, %)? I mean this compound: CCCS(=O)(=O)Nc1cccc(O[C@@H]2CN(C(=O)c3cc(C)ccc3C)C[C@H]2OC)c1 [Example 79]
a: 76%
